Target sequence: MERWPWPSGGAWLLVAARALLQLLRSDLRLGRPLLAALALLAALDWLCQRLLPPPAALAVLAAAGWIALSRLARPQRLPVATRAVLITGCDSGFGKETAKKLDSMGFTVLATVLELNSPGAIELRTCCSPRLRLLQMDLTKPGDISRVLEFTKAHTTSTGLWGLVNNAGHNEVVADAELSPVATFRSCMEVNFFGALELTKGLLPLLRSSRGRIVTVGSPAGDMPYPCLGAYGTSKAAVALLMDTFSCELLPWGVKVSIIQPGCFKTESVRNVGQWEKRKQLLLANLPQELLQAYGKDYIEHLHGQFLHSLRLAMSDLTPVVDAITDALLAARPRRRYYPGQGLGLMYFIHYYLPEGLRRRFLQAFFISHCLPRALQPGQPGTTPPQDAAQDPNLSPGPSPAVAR
pIC50: −log10 of the molar value.
observable: pIC50

Entry under test: C[C@@H]1CN(c2ccc(S(C)(=O)=O)cc2F)CCN1c1nccc(C(=O)NC2C3CC4CC2CC(O)(C4)C3)n1 (stereo partly specified) . Its pIC50 was < 5.00

* * *

target: 11-beta-hydroxysteroid dehydrogenase 1 (Homo sapiens, UniProt P28845); test: Inhibition of human 11beta-HSD1 expressed in microsomes; set-up: species or system Microsome
Sequence (P28845 whole entry): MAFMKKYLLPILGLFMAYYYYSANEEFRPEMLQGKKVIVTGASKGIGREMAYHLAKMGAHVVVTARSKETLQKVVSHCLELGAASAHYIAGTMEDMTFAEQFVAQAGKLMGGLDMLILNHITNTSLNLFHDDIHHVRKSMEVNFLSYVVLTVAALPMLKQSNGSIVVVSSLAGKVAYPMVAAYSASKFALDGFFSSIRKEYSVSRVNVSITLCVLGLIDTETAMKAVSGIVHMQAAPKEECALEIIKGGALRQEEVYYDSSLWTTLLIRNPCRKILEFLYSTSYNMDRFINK
observable: IC50

Entry under test: C[C@@H]1CN(c2ccc(S(C)(=O)=O)cc2F)CCN1c1nccc(C(=O)NC2C3CC4CC2CC(O)(C4)C3)n1 (stereo partly specified) . Its IC50 was 2.9 nM

* * *

assay: Metabolic stability in mouse liver microsomes assessed as compound remaining after 30 mins; type: ADME, Microsome; settings: read-out: Stabilty
remaining at 0.5 h vs 90%: less than gives rule met; not less than gives rule not met.

Past entries and their recorded results:
- C[C@@H]1CN(c2ccc(C(N)=O)nc2)CCN1c1cccc(C(=O)NC2C3CC4CC2CC(O)(C4)C3)n1 (stereo partly drawn): rule met
- C[C@@H]1CN(c2ccc(S(N)(=O)=O)cc2)CCN1c1cccc(C(=O)NC2C3CC4CC2CC(O)(C4)C3)n1 (stereo partly drawn): rule met
- C[C@@H]1CN(c2ccc(Cl)cc2)CCN1c1nccc(C(=O)NC2C3CC4CC2CC(O)(C4)C3)n1 (stereo partly drawn): rule met

Q: # TODO verify remaining at 0.5 h < 90% strictly for this molecule: C[C@@H]1CN(c2ccc(S(C)(=O)=O)cc2Cl)CCN1c1nccc(C(=O)NC2C3CC4CC2CC(O)(C4)C3)n1 (stereo partly drawn)
A: rule not met

Q: # TODO verify remaining at 0.5 h < 90% strictly for this molecule: C[C@@H]1CN(c2c(F)cc(S(C)(=O)=O)cc2F)CCN1c1nccc(C(=O)NC2C3CC4CC2CC(O)(C4)C3)n1 (stereo partly drawn)
A: rule not met

* * *

target: 11-beta-hydroxysteroid dehydrogenase 1 (Mus musculus)
Sequence (P50172 whole entry): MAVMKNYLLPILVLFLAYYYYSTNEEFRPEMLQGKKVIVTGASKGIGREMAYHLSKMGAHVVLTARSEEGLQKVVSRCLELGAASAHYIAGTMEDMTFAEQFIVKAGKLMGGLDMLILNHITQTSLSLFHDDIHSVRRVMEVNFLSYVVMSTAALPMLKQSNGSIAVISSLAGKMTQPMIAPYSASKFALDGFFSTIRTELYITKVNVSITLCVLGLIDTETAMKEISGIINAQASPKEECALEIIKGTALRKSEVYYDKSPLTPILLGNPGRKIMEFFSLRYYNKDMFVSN
observable: pIC50
Note: pIC50 values are expressed as the negative base-10 logarithm of concentration in M.

So the reported pIC50 for C[C@@H]1CN(c2ccc(S(C)(=O)=O)cc2F)CCN1c1nccc(C(=O)NC2C3CC4CC2CC(O)(C4)C3)n1 (stereo partly specified) , on 11-beta-hydroxysteroid dehydrogenase 1 (Mus musculus), turned out to be 8.80

* * *

assay: Ratio of drug level in brain to plasma of mouse at 10 mg/kg, po measured after 2 hrs post dose; format: ADME, organism-based; settings: read-out: BPR
observable: Kp at 2 h
Number only, please.

Entry under test: C[C@@H]1CN(c2ccc(S(C)(=O)=O)cc2F)CCN1c1nccc(C(=O)NC2C3CC4CC2CC(O)(C4)C3)n1 (stereo partly specified) . Its Kp at 2 h was 0.04

* * *

test: Cmax in dog at 4 mg/kg, po; assay type: ADME, organism-based, Canis lupus familiaris; set-up: route oral, dose 4 mg/kg; settings: in vivo
observable: Cmax (ng/mL)
Value expressed in ng/mL; do not type the unit.

Entry under test: C[C@@H]1CN(c2ccc(S(C)(=O)=O)cc2F)CCN1c1nccc(C(=O)NC2C3CC4CC2CC(O)(C4)C3)n1 (stereo partly specified) . Its Cmax was 1120

* * *

experiment: Toxicity in male dog during 4-week repeated once daily oral-dose toxicity study; parameters: species or system Canis lupus familiaris; conditions: in vivo, time 4 weeks
observable: NOAEL at 672 h (mg/kg)
Value expressed in mg/kg; do not type the unit.

Entry under test: C[C@@H]1CN(c2ccc(S(C)(=O)=O)cc2F)CCN1c1nccc(C(=O)NC2C3CC4CC2CC(O)(C4)C3)n1 (stereo partly specified) . Its NOAEL at 672 h was 400

* * *

Cytochrome P450 2C19 (Homo sapiens, UniProt P33261): reported IC50 for various compounds.
Sequence (P33261 whole entry): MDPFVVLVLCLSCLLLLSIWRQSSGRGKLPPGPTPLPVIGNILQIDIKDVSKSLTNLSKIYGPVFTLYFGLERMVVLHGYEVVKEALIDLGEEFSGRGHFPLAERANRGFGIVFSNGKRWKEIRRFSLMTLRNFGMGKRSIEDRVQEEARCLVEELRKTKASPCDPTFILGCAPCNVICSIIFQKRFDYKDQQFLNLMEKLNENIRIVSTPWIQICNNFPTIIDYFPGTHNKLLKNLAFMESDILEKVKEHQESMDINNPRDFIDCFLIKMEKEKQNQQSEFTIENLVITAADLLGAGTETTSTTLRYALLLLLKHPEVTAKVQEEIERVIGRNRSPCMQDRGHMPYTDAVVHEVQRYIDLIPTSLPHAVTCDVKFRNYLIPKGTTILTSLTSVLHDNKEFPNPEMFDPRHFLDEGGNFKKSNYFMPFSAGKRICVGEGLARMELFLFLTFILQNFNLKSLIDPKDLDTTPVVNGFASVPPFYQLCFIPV

• C[C@@H]1CN(c2ccc(S(C)(=O)=O)cc2F)CCN1c1nccc(C(=O)NC2C3CC4CC2CC(O)(C4)C3)n1 (some centres not stated) = > 10 µM

Consider the additional compound presented here.
Entry under test: C[C@@H]1CN(c2ccc(S(C)(=O)=O)cc2)CCN1c1nccc(C(=O)NC2C3CC4CC2CC(O)(C4)C3)n1 (some centres not stated) . Its IC50 was > 10 µM

* * *

assay: Tmax in dog at 4 mg/kg, po; format: ADME, organism-based, Canis lupus familiaris; conditions: in vivo
observable: Tmax (h)
Value expressed in h; do not type the unit.

Entry under test: C[C@@H]1CN(c2ccc(S(C)(=O)=O)cc2F)CCN1c1nccc(C(=O)NC2C3CC4CC2CC(O)(C4)C3)n1 (stereo partly specified) . Its Tmax was 2.1

* * *

# remaining at 0.5 h per record follows
experiment: Metabolic stability in mouse liver microsomes assessed as compound remaining after 30 mins; format: ADME, Microsome; settings: read-out: Stabilty
Value expressed in %; do not type the unit.

* C[C@@H]1CN(c2ccc(C(F)(F)F)cc2)CCN1c1nccc(C(=O)NC2C3CC4CC2CC(O)(C4)C3)n1 (stereo partly drawn) | 90
* C[C@@H]1CN(c2cc(F)c(S(C)(=O)=O)cc2F)CCN1c1nccc(C(=O)NC2C3CC4CC2CC(O)(C4)C3)n1 (stereo partly drawn) | 92

Consider the additional compound presented here.
Entry under test: C[C@@H]1CN(c2ccc(S(C)(=O)=O)cc2)CCN1c1nccc(C(=O)NC2C3CC4CC2CC(O)(C4)C3)n1 (stereo partly drawn) . Its remaining at 0.5 h was 92

Values were extracted from ChEMBL document CHEMBL4680093.
